Test system: Mus musculus
procedure_text: Toxicity in Swiss Webster mouse assessed as phosphate level at 50 mg/kg, ip daily for 7 days measured after 7 days
Assay type: organism-based
Design: dose 50 mg/kg, route intraperitoneal
protocol_conditions: in vivo, 168 h
test_readout: Activity

CCCOc1ccc(/C=C2\SC(=O)NC2=O)cc1 | 5.5 mg/dL

---

Tested on: Mus musculus
procedure_text: Toxicity in Swiss Webster mouse assessed as blood urea nitrogen level at 3 mg/kg, ip daily for 7 days measured after 7 days
Type: organism-based
Set-up: dose 3 mg/kg, route intraperitoneal
protocol_conditions: in vivo, 168 h
test_readout: Activity (mg/dL)

CCCOc1ccc(/C=C2\SC(=O)NC2=O)cc1 | 17

These measurements were taken from ChEMBL document CHEMBL1139352.
